This collection of values is drawn from paper PMC9889419.

# target entity: hNav1.1 sodium channel (Homo sapiens)
# Construct: host or cells: CHO cells
# run description: Nav channel electrophysiology (IonWorks Quattro)
# Format: cell-based
# experimental setup: Inactivated state
pIC50: −log10 of the molar value.
property label: pIC50

Request: Name the reported pIC50 value associated with the compound CCC(CO)NCCOc1c(C)cccc1Cl (stereo not shown)
Response: > 5.00

---

# target entity: hNav1.7 sodium channel (Homo sapiens)
# Construct: host or cells: CHO cells
# Sequence (Q15858 whole entry): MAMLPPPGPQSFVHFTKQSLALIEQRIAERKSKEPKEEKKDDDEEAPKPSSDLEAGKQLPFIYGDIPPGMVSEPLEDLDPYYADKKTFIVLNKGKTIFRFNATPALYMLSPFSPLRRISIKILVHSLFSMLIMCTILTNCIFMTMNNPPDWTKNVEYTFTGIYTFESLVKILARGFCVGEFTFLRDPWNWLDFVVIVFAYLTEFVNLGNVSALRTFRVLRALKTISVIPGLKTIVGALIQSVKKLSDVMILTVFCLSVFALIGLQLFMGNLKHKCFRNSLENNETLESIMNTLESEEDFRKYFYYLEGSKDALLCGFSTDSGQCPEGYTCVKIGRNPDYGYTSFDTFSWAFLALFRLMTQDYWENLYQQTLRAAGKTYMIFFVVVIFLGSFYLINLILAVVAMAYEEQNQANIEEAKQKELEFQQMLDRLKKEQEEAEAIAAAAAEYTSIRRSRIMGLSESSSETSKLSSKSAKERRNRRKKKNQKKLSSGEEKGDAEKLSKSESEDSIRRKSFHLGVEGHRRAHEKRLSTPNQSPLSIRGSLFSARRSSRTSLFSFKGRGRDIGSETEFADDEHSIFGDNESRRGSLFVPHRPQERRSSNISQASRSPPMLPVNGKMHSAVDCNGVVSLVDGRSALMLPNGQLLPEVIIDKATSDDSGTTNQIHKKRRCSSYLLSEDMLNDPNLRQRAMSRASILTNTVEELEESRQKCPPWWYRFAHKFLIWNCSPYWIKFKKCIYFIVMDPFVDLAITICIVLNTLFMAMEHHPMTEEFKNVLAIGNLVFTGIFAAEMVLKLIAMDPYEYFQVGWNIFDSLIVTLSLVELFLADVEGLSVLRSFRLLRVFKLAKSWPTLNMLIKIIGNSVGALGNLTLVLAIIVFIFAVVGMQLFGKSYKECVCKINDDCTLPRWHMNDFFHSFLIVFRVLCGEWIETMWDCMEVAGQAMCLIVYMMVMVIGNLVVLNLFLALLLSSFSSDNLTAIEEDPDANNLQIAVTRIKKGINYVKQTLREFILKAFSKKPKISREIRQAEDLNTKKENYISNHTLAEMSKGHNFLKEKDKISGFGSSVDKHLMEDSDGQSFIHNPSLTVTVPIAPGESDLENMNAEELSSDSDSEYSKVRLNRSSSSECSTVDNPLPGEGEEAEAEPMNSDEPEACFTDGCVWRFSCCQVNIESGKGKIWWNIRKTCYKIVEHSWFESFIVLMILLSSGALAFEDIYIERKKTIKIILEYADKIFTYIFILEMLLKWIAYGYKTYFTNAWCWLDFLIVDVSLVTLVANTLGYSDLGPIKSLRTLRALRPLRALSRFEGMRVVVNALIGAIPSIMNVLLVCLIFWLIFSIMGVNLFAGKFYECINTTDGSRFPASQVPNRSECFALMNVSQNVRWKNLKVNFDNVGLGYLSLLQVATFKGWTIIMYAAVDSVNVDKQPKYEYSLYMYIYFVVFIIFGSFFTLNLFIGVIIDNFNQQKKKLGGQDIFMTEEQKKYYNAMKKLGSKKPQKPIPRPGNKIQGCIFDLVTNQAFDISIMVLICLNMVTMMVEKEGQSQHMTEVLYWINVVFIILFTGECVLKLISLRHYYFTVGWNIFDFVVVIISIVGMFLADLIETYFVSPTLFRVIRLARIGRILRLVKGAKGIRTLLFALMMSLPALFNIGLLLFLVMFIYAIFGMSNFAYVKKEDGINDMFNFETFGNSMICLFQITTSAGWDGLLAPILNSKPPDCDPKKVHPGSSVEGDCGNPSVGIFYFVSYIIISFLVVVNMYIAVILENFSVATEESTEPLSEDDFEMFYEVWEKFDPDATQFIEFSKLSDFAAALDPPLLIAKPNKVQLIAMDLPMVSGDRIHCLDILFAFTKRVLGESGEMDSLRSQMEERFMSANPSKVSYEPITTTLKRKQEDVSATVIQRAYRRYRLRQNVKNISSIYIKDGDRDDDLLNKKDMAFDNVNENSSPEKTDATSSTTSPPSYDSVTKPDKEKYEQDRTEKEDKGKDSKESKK
# run description: Nav channel electrophysiology (IonWorks Quattro)
# Assay type: cell-based
# experimental setup: 10 Hz
property label: pIC50
Just so you know, pIC50 here is -log10 of the concentration in molar units; reply with that number alone.

Request: Fill blank: measured pIC50 of the compound CCC(CO)NCCOc1c(C)cccc1Cl (stereo not shown) is ____.
Response: 4.81

---

# run description: Tissue distribution;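 further: organ homogenates in PBS analysed by HPLC after FMOC-Cl derivatization, non-compartmental analysis, Kp as tissue over plasma AUC, half-life taken as ln2 divided by λz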
# Format: in vivo, rats
# experimental setup: male, Wistar, rat; 5 mg/kg iv, Heart; read-out: Kp (tissue-to-plasma AUC ratio)
property label: Kp
// print number alone

Request: Data request, read-out Kp, for CCC(CO)NCCOc1c(C)cccc1Cl (stereo not shown)
Response: 0.38

---

# Test system: CYP3A1 (pregnane X receptor)
# run description: In vitro metabolic gene induction studies
# Type: cell-based, rat
# experimental setup: RPXR cell line; read-out: EC50 (calculated)
property label: pEC50
Reminder that pEC50 means the negative base-10 logarithm of the concentration expressed in mol/L.

Request: What does the record list as pEC50 for CCC(CO)NCCOc1c(C)cccc1Cl (stereo not shown) ?
Response: 4.13

---

# run description: Pharmacokinetics in plasma
# Assay type: in vivo, rats
# experimental setup: male, Wistar, rat, plasma; rats, po 100 mg/kg
property label: Tmax (min)
Kindly answer with a numeric value in min, unit omitted.

Request: Could you tell me which Tmax is on file for CCC(CO)NCCOc1c(C)cccc1Cl (stereo not shown) [KM-408] ?
Response: 30

---

# run description: Pharmacokinetics in plasma
# Format: in vivo, rats
# experimental setup: male, Wistar, rat, plasma; rats, iv 1 mg/kg; read-out: Vz
property label: Vd (L/kg)
Numbers only; they are read as L/kg.

Request: What value of Vd has been recorded for this entry: CCC(CO)NCCOc1c(C)cccc1Cl (stereo not shown)
Response: 2.53

---

# target entity: 5-HT1A (Homo sapiens, UniProt P08908)
# Sequence (P08908 whole entry): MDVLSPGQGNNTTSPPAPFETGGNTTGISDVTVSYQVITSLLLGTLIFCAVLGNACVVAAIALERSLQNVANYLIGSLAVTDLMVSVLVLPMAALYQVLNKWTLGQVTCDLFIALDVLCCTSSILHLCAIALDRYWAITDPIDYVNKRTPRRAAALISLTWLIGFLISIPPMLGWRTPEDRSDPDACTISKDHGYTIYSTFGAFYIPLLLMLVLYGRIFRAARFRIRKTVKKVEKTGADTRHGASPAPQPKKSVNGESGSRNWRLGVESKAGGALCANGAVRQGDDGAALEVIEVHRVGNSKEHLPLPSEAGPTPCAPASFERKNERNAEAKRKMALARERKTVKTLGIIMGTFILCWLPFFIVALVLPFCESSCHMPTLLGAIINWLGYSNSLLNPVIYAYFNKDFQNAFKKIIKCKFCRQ
property label: pKi
Units for pKi: none; it is -log10 of a concentration expressed in mol/L.

Request: Value lookup for pKi; key = CCC(CO)NCCOc1c(C)cccc1Cl (stereo not shown)
Response: 6.10

---

# run description: Pharmacokinetics in plasma
# Assay type: in vivo, rats
# experimental setup: male, Wistar, rat, plasma; rats, iv 1 mg/kg
# Method: Pharmacokinetic study design. Male Wistar rats (250–300 g) bred in-house from progenitors obtained from Charles River Laboratories (Sulzfed, Germany) were used in this study. […] Pharmacokinetic data analysis. Plasma and tissue concentration versus time profiles were analyzed by the non-compartmental approach in Phoenix WinNonlin v. […] The terminal slope (λz) was estimated by linear regression and the terminal half-life (t0.5λz) was calculated as ln2/λz. […]
property label: clearance

Request: Param item = CCC(CO)NCCOc1c(C)cccc1Cl (stereo not shown) [KM-408] ; retrieve measured clearance.
Response: 4.8 L/h/kg

---

# run description: Pharmacokinetics in plasma
# Type: in vivo, rats
# experimental setup: male, Wistar, rat, plasma; rats, po 100 mg/kg
# Procedure: Pharmacokinetic study design. Male Wistar rats (250–300 g) bred in-house from progenitors obtained from Charles River Laboratories (Sulzfed, Germany) were used in this study. […] Pharmacokinetic data analysis. Plasma and tissue concentration versus time profiles were analyzed by the non-compartmental approach in Phoenix WinNonlin v. […] The terminal slope (λz) was estimated by linear regression and the terminal half-life (t0.5λz) was calculated as ln2/λz. […]
property label: CL/F (mL/min/kg)
Lab book: enter the figure in mL/min/kg, no units written.

Request: Query: CL/F; subject: CCC(CO)NCCOc1c(C)cccc1Cl (stereo not shown) [KM-408]
Response: 2060
